# MEASUREMENT_TARGET: FGFR4 (h) (Homo sapiens)
# Sequence (P22455 22-802): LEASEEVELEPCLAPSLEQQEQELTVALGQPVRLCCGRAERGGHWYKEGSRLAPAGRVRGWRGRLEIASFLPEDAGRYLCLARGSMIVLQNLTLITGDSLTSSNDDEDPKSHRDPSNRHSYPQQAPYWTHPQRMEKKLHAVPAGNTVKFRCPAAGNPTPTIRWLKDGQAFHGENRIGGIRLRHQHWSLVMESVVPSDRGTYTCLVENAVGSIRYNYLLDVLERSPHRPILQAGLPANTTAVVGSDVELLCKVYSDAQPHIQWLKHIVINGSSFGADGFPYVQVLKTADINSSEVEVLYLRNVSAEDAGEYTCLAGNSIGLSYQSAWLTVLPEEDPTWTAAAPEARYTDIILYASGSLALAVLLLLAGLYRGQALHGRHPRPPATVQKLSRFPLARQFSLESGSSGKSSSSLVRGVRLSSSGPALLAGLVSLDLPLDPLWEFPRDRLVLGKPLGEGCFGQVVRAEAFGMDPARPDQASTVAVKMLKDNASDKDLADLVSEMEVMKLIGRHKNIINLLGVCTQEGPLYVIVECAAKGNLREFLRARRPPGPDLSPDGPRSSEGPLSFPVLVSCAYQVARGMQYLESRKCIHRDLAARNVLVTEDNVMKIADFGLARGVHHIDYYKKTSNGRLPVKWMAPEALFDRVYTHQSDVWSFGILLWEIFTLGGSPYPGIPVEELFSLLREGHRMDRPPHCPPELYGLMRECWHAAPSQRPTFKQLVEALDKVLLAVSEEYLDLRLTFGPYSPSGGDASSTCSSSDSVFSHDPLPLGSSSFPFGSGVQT
# ASSAY_PROCEDURE: FGFR4 (enzymatic assay), TR-FRET
# Format: biochemical
# TEST_PARAMETERS: FGFR 4 pIC50, enzymatic assay
REPORTED_ENDPOINT: log10 IC50 (log10 of the value in nM)

[[record]]
compound = "COc1cc(OC)c(F)c(N(CC(C)(C)O)c2ccc3ncc(-c4cnn(C)c4)nc3n2)c1F"
measurement_target = "FGFR4 (h) (Homo sapiens)"
observed_value = 0.69

[[record]]
compound = "COc1cc(OC)c(F)c(N(CC2CC2)c2ccc3ncc(-c4cnn(C)c4)nc3n2)c1F (single isomer, unassigned)"
measurement_target = "FGFR4 (h) (Homo sapiens)"
observed_value = 0.41

[[record]]
compound = "CNCCn1ccnc1CN(c1ccc2ncc(-c3cnn(C)c3)nc2n1)c1cc(OC)cc(OC)c1F"
measurement_target = "FGFR4 (h) (Homo sapiens)"
observed_value = 1.76

[[record]]
compound = "COc1cc(OC)cc(N(Cc2ncn(CCO)n2)c2ccc3ncc(-c4cnn(C)c4)nc3n2)c1"
measurement_target = "FGFR4 (h) (Homo sapiens)"
observed_value = 1.68

[[record]]
compound = "COc1cc(OC)c(F)c(N(CCS(C)(=O)=O)c2ccc3ncc(-c4cnn(C)c4)nc3n2)c1"
measurement_target = "FGFR4 (h) (Homo sapiens)"
observed_value = 0.48

[[record]]
compound = "COc1cc(OC)c(F)c(N(CC2CCC(=O)N2C)c2ccc3ncc(-c4cnn(C)c4)nc3n2)c1 (centres unmarked) [Compound 161]"
measurement_target = "FGFR4 (h) (Homo sapiens)"
observed_value = 1.57

[[record]]
compound = "COc1cc(OC)c(F)c(/N=c2\\ccc3ncc(-c4cnn(C)c4)nc3n2C)c1F (single isomer, unassigned)"
measurement_target = "FGFR4 (h) (Homo sapiens)"
observed_value = -0.29

[[record]]
compound = "COc1cc(OC)cc(N(Cc2ncc[nH]2)c2ccc3ncc(N4CCOCC4)nc3n2)c1"
measurement_target = "FGFR4 (h) (Homo sapiens)"
observed_value = 0.68

[[record]]
compound = "COc1cc(OC)c(F)c(N(Cc2nccn2C)c2ccc3ncc(-c4cnn(C)c4)nc3n2)c1"
measurement_target = "FGFR4 (h) (Homo sapiens)"
observed_value = 0.87

[[record]]
compound = "COc1cc(OC)c(F)c(N(CCNC(C)=O)c2ccc3ncc(-c4cnn(C)c4)nc3n2)c1"
measurement_target = "FGFR4 (h) (Homo sapiens)"
observed_value = 0.35

[[record]]
compound = "COc1cc(OC)c(F)c(N(Cc2ncc[nH]2)c2ccc3ncc(-c4cnn(C(CO)CCl)c4)nc3n2)c1 (centres unmarked)"
measurement_target = "FGFR4 (h) (Homo sapiens)"
observed_value = 0.05

[[record]]
compound = "COc1cc(OC)c(F)c(N(Cc2noc(C)n2)c2ccc3ncc(-c4cnn(C)c4)nc3n2)c1"
measurement_target = "FGFR4 (h) (Homo sapiens)"
observed_value = 0.48


====

# MEASUREMENT_TARGET: FGFR2 (h) (Homo sapiens)
# Sequence (P21802 22-821): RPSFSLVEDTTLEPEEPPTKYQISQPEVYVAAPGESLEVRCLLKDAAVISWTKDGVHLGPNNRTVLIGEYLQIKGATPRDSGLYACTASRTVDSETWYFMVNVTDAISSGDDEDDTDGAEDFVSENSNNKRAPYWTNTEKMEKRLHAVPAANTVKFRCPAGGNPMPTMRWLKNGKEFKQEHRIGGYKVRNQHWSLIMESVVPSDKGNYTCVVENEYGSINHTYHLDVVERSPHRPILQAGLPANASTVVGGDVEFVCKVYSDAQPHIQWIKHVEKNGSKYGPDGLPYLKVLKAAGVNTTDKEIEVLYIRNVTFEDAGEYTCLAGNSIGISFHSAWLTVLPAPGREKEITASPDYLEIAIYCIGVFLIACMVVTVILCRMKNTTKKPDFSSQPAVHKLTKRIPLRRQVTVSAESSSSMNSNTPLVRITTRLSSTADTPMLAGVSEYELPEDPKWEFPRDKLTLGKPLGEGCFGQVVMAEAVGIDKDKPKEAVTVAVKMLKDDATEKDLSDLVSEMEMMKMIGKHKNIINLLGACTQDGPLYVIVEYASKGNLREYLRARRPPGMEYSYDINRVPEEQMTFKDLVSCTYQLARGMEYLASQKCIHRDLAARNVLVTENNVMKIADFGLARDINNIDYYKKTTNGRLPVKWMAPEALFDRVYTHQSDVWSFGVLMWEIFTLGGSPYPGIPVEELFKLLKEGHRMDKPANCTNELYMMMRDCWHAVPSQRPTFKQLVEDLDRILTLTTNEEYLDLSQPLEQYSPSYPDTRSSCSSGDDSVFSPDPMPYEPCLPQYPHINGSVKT
# ASSAY_PROCEDURE: FGFR2 (enzymatic assay), TR-FRET
# Type: biochemical
# TEST_PARAMETERS: enzymatic assay; read-out: FGFR 2 pIC50 (converted)
Measured IC50, listed per entry.
REPORTED_ENDPOINT: IC50 (nM)

[[record]]
compound = "COc1cc(OC)c(F)c(N(Cc2cnn(C)c2)c2ccc3ncc(-c4cnn(C)c4)nc3n2)c1"
observed_value = 2.04

[[record]]
compound = "COc1cc(/N=c2\\ccc3ncc(-c4cnn(C)c4)nc3n2CC2CCC(=O)N2CCO)c(F)c(OC)c1 (single isomer, unassigned) [Compound 219]"
observed_value = 2.24

[[record]]
compound = "COc1cc(OC)cc(N(CCS(C)(=O)=O)c2ccc3ncc(-c4cnn(CCS(C)(=O)=O)c4)nc3n2)c1"
observed_value = 3.47

[[record]]
compound = "COc1cc(/N=c2\\ccc3ncc(-c4cnn(C)c4)nc3n2CC2CCC(=O)N2C)c(F)c(OC)c1 (stereo not shown) [Compound 160]"
observed_value = 1.82

[[record]]
compound = "COc1cc(OC)cc(N(Cc2nnc(NCCO)o2)c2ccc3ncc(-c4cnn(C)c4)nc3n2)c1"
observed_value = 19.1

[[record]]
compound = "COc1cc(/N=c2\\ccc3ncc(-c4cnn(C)c4)nc3n2CC(C)(C)O)c(F)c(OC)c1"
observed_value = 1.51

[[record]]
compound = "COc1cc(OC)cc(N(Cc2c[nH]nn2)c2ccc3ncc(-c4cnn(C)c4)nc3n2)c1"
observed_value = 1.41


Reference for the values: patent US9309242B2
